Listing of entries alongside the reported pH stability.
ASSAY_SUMMARY: pH stability tests
Format: physicochemical
TEST_PARAMETERS: pH 8.0, 6 days

// known answers, use as guide
COCCOC(=O)NCCO/N=C(\C)C(=O)c1ccccc1 :: <1%
COCCOCNCCO/N=C(\C)CC(=O)c1ccccc1 [drawing 135] :: <1%
COCCOC(=O)NCCO/N=C1\C(=O)Nc2ccccc21 :: <1%
COCCOC(=O)NCCO/N=C(\C)COc1ccccc1 :: 45%
COCCOC(=O)NCCO/N=C(\C)C(=O)Nc1ccccc1 [drawing 134] :: <1%

Query string: State its pH stability: "COCCOC(=O)NCCO/N=C(\C)CNC(=O)c1ccccc1"
Result string: 30%

Query string: Give the reported pH stability for this compound. COCCOC(=O)NCCO/N=C(\C)C(=O)Nc1ccccc1 [drawing 138]
Result string: <1%

Query string: Given the compound COCCOCNCCO/N=C(\C)CC(=O)c1ccccc1 [drawing 139] , write its reported pH stability.
Result string: <1%

* * *

ASSAY_SUMMARY: pH stability tests
Format: physicochemical
TEST_PARAMETERS: pH 5.0, 2 days
The compounds listed here are annotated with their pH stability.

COCCOC(=O)NCCO/N=C(\C)C(=O)Nc1ccccc1 [drawing 138] :: <1%
COCCOC(=O)NCCO/N=C1\C(=O)Nc2ccccc21 :: <1%
COCCOC(=O)NCCO/N=C(\C)COc1ccccc1 :: 5%

Query string: Note down pH stability recorded for "COCCOC(=O)NCCO/N=C(\C)CNC(=O)c1ccccc1"
Result string: 3%

Query string: Give the reported pH stability for this compound. COCCOC(=O)NCCO/N=C(\C)C(=O)Nc1ccccc1 [drawing 134]
Result string: <1%

* * *

ASSAY_SUMMARY: pH stability tests
Type: physicochemical
TEST_PARAMETERS: pH 7.4, 10 days
Examples of compounds with documented pH stability follow.

Examples from the recorded data:
COCCOC(=O)NCCO/N=C(\C)CNC(=O)c1ccccc1 :: <1%
COCCOCNCCO/N=C(\C)CC(=O)c1ccccc1 [drawing 135] :: 11%
COCCOC(=O)NCCO/N=C(\C)COc1ccccc1 :: 15%
COCCOC(=O)NCCO/N=C1\C(=O)Nc2ccccc21 :: <1%
COCCOC(=O)NCCO/N=C(\C)C(=O)c1ccccc1 :: <1%
COCCOCNCCO/N=C(\C)CC(=O)c1ccccc1 [drawing 139] :: <1%
COCCOC(=O)NCCO/N=C(\C)C(=O)Nc1ccccc1 [drawing 134] :: <1%

Next, consider the following compound.
Query string: Identify the reported pH stability for the following entry. COCCOC(=O)NCCO/N=C(\C)C(=O)Nc1ccccc1 [drawing 138]
Result string: <1%

* * *

ASSAY_SUMMARY: pH stability tests
Assay type: physicochemical
TEST_PARAMETERS: pH 4.0, 10 days
We begin with a simple list: items and their reported pH stability.

COCCOC(=O)NCCO/N=C(\C)C(=O)c1ccccc1 :: <1%

Next item in the queue.
Query string: Give pH stability for COCCOC(=O)NCCO/N=C(\C)C(=O)Nc1ccccc1 [drawing 138]
Result string: <1%

* * *

ASSAY_SUMMARY: pH stability tests
Assay type: physicochemical
TEST_PARAMETERS: pH 4.0, 5 days
Each record here notes measured pH stability.

Examples with answers:
COCCOC(=O)NCCO/N=C(\C)COc1ccccc1 :: 8%
COCCOC(=O)NCCO/N=C(\C)C(=O)Nc1ccccc1 [drawing 134] :: <1%
COCCOC(=O)NCCO/N=C(\C)C(=O)Nc1ccccc1 [drawing 138] :: <1%
COCCOC(=O)NCCO/N=C1\C(=O)Nc2ccccc21 :: <1%
COCCOCNCCO/N=C(\C)CC(=O)c1ccccc1 [drawing 135] :: <1%

Query string: For the molecule COCCOCNCCO/N=C(\C)CC(=O)c1ccccc1 [drawing 139] , report pH stability.
Result string: <1%

Query string: Could you please provide reported pH stability for "COCCOC(=O)NCCO/N=C(\C)CNC(=O)c1ccccc1" ? Thanks!
Result string: 11%

Query string: Return pH stability for the following molecule: "COCCOC(=O)NCCO/N=C(\C)C(=O)c1ccccc1"
Result string: <1%
